- Test system: W2
- MEASUREMENT DESCRIPTION: qHTS profiling for inhibitors of Plasmodium falciparum proliferation (AID 504749); also: nearly all actives have a fitted effect of over 60% in size; also: potency is read from the fitted curve at half-maximal effect
- RUN CONDITIONS: P. falciparum in erythrocytes, SYBR Green DNA, 72 h; series mostly up to 28.7 µM
- Procedure: NIH National Institute of Allergy and Infectious Diseases [NIAID] NIH Chemical Genomics Center [NCGC] […] Because mature erythrocytes lack DNA, only Plasmodium-derived DNA is detected. NCGC Assay Protocol Summary: The SYBR Green viability assay was adapted from a method described previously (Plouffe et al., 2008). […] The following morning, fluorescence intensity at 485(14) nm excitation and 535(25) nm emission wavelengths was measured on an EnVision (Perkin Elmer) plate reader. […]
Results filed as inconclusive are left out. Activity calls are given as the source filed them. Calls follow the shape of the dose curve; as a rule, active = well fitted inhibition curve with a large enough effect; inconclusive = small, poorly fitted or top-dose-only effect; inactive = flat fitted curve, though single readings scatter.

{"columns": ["MOLECULE", "Potency"],
 "data": [
  ["CC(C)(C)[C@]1(O)CCN2CC3c4ccccc4CCc4cccc(c43)[C@@H]2C1 (stereo partly specified)", "5.36 µM (active)"],
  ["CN1C(=O)CCC1c1cccnc1 (stereo unspecified)", "inactive"],
  ["C[C@@H]1[C@H](O)[C@@H](C)/C=C/C=C/C=C/C=C/C=C/C=C/C=C/[C@H](O[C@@H]2O[C@H](C)[C@@H](O)[C@H](N)[C@@H]2O)C[C@@H]2O[C@](O)(C[C@@H](O)C[C@@H](O)[C@H](O)CC[C@@H](O)C[C@@H](O)CC(=O)O[C@H]1C)C[C@H](O)[C@H]2C(=O)O", "inactive"],
  ["C[C@@]12C(=O)OC(=O)[C@]1(C)[C@H]1CC[C@@H]2O1", "2.28 µM (active)"],
  ["CN=C(N)NCCCC(N)C(=O)O (stereo unspecified)", "inactive"],
  ["CC(C)C[C@H]1C(=O)N2CCCC2[C@]2(O)O[C@](NC(=O)[C@@H]3C=C4c5cccc6[nH]c(Br)c(c56)C[C@H]4N(C)C3)(C(C)C)C(=O)N12 (stereo partly specified)", "1.69 µM (active)"]
]}

====

- ASSAYED SYSTEM: Dual specificity protein kinase CLK4 (Homo sapiens) (UniProt Q9HAZ1)
- Sequence (Q9HAZ1 whole entry, looked up): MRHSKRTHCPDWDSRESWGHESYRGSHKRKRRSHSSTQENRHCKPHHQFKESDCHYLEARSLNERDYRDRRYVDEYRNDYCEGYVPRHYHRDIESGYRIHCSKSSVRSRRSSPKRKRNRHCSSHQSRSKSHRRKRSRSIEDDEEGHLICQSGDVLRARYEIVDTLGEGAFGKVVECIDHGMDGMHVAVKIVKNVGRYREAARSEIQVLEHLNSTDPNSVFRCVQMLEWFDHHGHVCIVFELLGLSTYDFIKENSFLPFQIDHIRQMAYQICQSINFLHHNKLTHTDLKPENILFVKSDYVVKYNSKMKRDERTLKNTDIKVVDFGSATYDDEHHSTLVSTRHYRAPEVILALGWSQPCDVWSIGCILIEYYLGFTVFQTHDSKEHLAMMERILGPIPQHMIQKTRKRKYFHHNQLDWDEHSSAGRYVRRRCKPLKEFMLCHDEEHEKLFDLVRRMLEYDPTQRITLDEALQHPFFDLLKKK
- MEASUREMENT DESCRIPTION: qHTS Assay for Inhibitors of CDC-like Kinase 4 (ADP-FP Assay) (AID 1795); also: nearly all actives have a fitted effect of over 60% in size; also: potency is read from the fitted curve at half-maximal effect
- RUN CONDITIONS: Transcreener ADP fluorescence polarization; series mostly up to 50 µM
Results filed as inconclusive are left out. Active and inactive are the calls of the source. Calls follow the shape of the dose curve; as a rule, active = well fitted inhibition curve with a large enough effect; inconclusive = small, poorly fitted or top-dose-only effect; inactive = flat fitted curve, though single readings scatter.
EXPERIMENTAL READOUT: Potency

{"columns": ["STRUCTURE SMILES", "ASSAYED SYSTEM", "RESULT"],
 "data": [
  ["CNc1nc(-c2ccccc2CN(C)C)nc2ccccc12", "Dual specificity protein kinase CLK4 (Homo sapiens) (UniProt Q9HAZ1)", "inactive"],
  ["COc1ccc(Oc2ncc3nc(-c4cn(C)c5ccccc45)c(=O)n(C4CC4)c3n2)cc1", "Dual specificity protein kinase CLK4 (Homo sapiens) (UniProt Q9HAZ1)", "inactive"],
  ["COc1ncc2ncc(=O)n(C[C@H]3CCCO3)c2n1", "Dual specificity protein kinase CLK4 (Homo sapiens) (UniProt Q9HAZ1)", "inactive"],
  ["CN(C)C(=O)c1ccc(-c2cncnc2NC2CCNCC2)cc1", "Dual specificity protein kinase CLK4 (Homo sapiens) (UniProt Q9HAZ1)", "inactive"],
  ["COCCn1c(=O)c(-c2ccc(F)cc2)nc2cnc(N3CCOCC3)nc21", "Dual specificity protein kinase CLK4 (Homo sapiens) (UniProt Q9HAZ1)", "inactive"],
  ["COc1cccc(-c2ccc3ncnc(NCc4ccccc4)c3c2)c1", "Dual specificity protein kinase CLK4 (Homo sapiens) (UniProt Q9HAZ1)", "794 nM (active)"]
]}

====

- MEASUREMENT DESCRIPTION: NCATS anti-infectives library activity on the primary C. elegans qHTS viability assay (AID 1745855); also: potency is read from the fitted curve at half-maximal effect
- RUN CONDITIONS: C. elegans worm area imaging, day 7; series mostly up to 41.8 µM
Results filed as inconclusive are left out. Active and inactive are the calls of the source. Calls follow the shape of the full dose curve.

{"columns": ["STRUCTURE SMILES", "Potency"],
 "data": [
  ["CC(=O)N1c2ccc(-c3ccc(C(=O)O)cc3)cc2[C@H](Nc2ccc(Cl)cc2)C[C@@H]1C", "23 µM (active)"],
  ["Cc1c(-c2cnccn2)ssc1=S", "inactive"],
  ["CN(C)c1cc(NC(=O)CNC(C)(C)C)c(O)c2c1C[C@H]1C[C@H]3[C@H](N(C)C)C(=O)C(C(N)=O)=C(O)[C@]3(O)C(=O)C1=C2O", "inactive"],
  ["O=C(OC[C@H]1O[C@@H](OC(=O)c2cc(O)c(O)c(O)c2)[C@H](OC(=O)c2cc(O)c(O)c(O)c2)[C@@H](OC(=O)c2cc(O)c(O)c(O)c2)[C@@H]1OC(=O)c1cc(O)c(O)c(O)c1)c1cc(O)c(O)c(O)c1", "inactive"]
]}

====

- MEASUREMENT DESCRIPTION: qHTS for activators of Nrf2/ARE signaling pathway screened against the NCATS CANVASS Library (AID 1347391); also: nearly all actives have a fitted effect of over 60% in size
- RUN CONDITIONS: ARE-bla HepG2, beta-lactamase reporter, 16 h; series mostly up to 46.1 µM
Records with an inconclusive call do not appear. Activity calls are given as the source filed them. Calls come from the whole dose curve; as a rule, active = well fitted activation curve with a large enough effect; inconclusive = small, poorly fitted or top-dose-only effect; inactive = no such curve, though single readings can be large or run the other way.
Outcome codes: active, inactive

{"columns": ["COMPOUND", "CAT"],
 "data": [
  ["C/C=C(/C)c1c(Cl)c(O)c(C)c2c1Oc1c(Cl)c(O)c(Cl)c(C)c1C(=O)O2", "inactive"],
  ["C=C1CC[C@@H](Br)C(C)(C)[C@]12CC=C(C)C(=O)C2", "active"],
  ["CC(CCC[C@]1(C)C(=O)C=C[C@@]23C[C@]4(C)O[C@@H](C[C@@H]4[C@H]2O)C31)C(=O)O (some centres not stated)", "inactive"],
  ["C=C1[C@@]2(C)CC3C4(C)CCC(O)C(C)(C)C4CCC3(C)[C@]1(C(=O)OC)C(=O)C(C)(O)C2=O (some centres not stated)", "inactive"],
  ["O=c1cc(-c2ccc(O)cc2)oc2cc(O)c([C@@H]3OC(CO)[C@H](O)[C@@H](O)[C@H]3O)c(O)c12 (some centres not stated)", "inactive"],
  ["COC(=O)c1cccc2oc(-c3cccc4oc(-c5c(C)cccc5O)nc34)nc12", "active"],
  ["COc1ccc2[nH]c3c(c2c1)CCN1C[C@H]2C[C@@H](OC(=O)c4cc(OC)c(OC)c(OC)c4)[C@H](OC)[C@@H](OC)[C@H]2C[C@H]31", "inactive"],
  ["C/C=C/C(=O)C1(O)CC2CC(C(=O)O)CC(C)C2C1C1=C2C(=O)NC(=O)C2=C(CCCCC)C(C)O1 (configuration not stated)", "active"],
  ["COc1c(O)cc2c(c1O)C(=O)c1c(coc1C)C2=O", "active"],
  ["C=C1C[C@H]2O[C@@H]3[C@@H]4[C@H](CC[C@@](C)(O)[C@@H]42)[C@H](C)COC3(C)[C@@H](OC(=O)CCCCCCC)CC1=O (some centres not stated)", "inactive"],
  ["C/C=C/[C@H]1[C@H]2C(=O)c3c(O)c(C)c(O)c(C)c3[C@]1(C(=O)O)C(=O)C=C2C", "inactive"],
  ["C/C=C1/C2=CCCN3C(=O)O[C@H]([C@H]1O)[C@H]23", "inactive"],
  ["C=CC(CCCCC)C1C(=O)NC(=O)C1C(=O)C1C(/C=C/C)C=CC2CC(C(=O)O)CC(C)C21 (configuration not stated)", "active"],
  ["COc1cc(C2OCC3C(c4ccc(O)c(OC)c4)OCC23)ccc1O (configuration not stated)", "active"],
  ["C=C[C@]1(C)CC[C@@H]([C@H](C)C(=O)/C=C/C(C)(C)O)O1", "active"],
  ["CCC(C)=C1OC(=O)[C@H](C)[C@H](O)[C@H](Cc2cccnc2)NC(=O)C(NC(=O)c2ncccc2O)C(C)OC1=O (some centres not stated)", "inactive"],
  ["O=C1OC(CCO)c2cccc(O)c21 (configuration not stated)", "inactive"],
  ["COC1C(C)OC(OCC23C[C@@H]4[C@H](C)CC[C@H]4C4(C=O)CC2C=C(C(C)C)C34C(=O)O)[C@@H](O)[C@H]1O (some centres not stated)", "inactive"],
  ["C=C1C(=O)O[C@H]2[C@H]1CCC(C)=C1CC[C@@](C)(O)[C@@H]12", "active"],
  ["C[C@]12CC[C@]3(C1)[C@H](CC2=O)C[C@@H](OC(=O)c1ccccc1)[C@H]1[C@](C)(C(=O)O)CCC[C@@]13C", "active"],
  ["CC[C@@H]1C[C@@]2(CC)OC(=O)[C@@]3(CC)[C@H](CC)[C@@H]1[C@@H]23", "inactive"],
  ["C=CC(C)(C)C(=O)[C@@H](C)[C@@H]1CC[C@@](C)(C=C)O1", "inactive"],
  ["C/C=C(/CO)C(=O)O[C@@H]1[C@H](O)[C@@H](C(=O)OC)O[C@@H]2C[C@H]3OC(n4cnc5c(N)ncnc54)[C@H](OC)[C@H]3O[C@@]12O (some centres not stated)", "active"],
  ["CC(C)=CCCC(C)(O)[C@H]1CC=C(C)C(O)C1 (some centres not stated)", "inactive"],
  ["C=CC(CCCCC)C1C(=O)NC(=O)C1C(=O)C1C2C(C)CC(C(=O)O)CC2CC1(O)C(=O)/C=C/C (configuration not stated)", "active"],
  ["CC[C@H]1[C@H](C)[C@H](c2cc(OC)c(OC)cc2OC)[C@@H](C)[C@H](c2cc(OC)c(OC)cc2OC)[C@@]12C=C(OC)C(=O)C=C2OC", "active"],
  ["C[C@H]1CCC2(OC1)O[C@H]1C[C@H]3[C@@H]4CC(=O)[C@]5(O)C[C@H](O)CC[C@@]5(C)[C@H]4CC[C@@]3(C)[C@H]1[C@H]2C (some centres not stated)", "active"],
  ["C=C1CCC2C(C)(C(=O)O)CCC(CC/C(C)=C/C(=O)NC(CCC(N)=O)C(=O)O)[C@@]2(C)C1 (some centres not stated)", "inactive"],
  ["C/C(=C\\[C@H](C)C(=O)C[C@H](O)CC1CC(=O)NC(=O)C1)[C@@H]1OC(=O)CCCC/C=C/[C@@H](O)C[C@@H]1C", "active"],
  ["C=C1C[C@H]2O[C@@H]3[C@@H]4[C@H](CC[C@@](C)(O)[C@@H]42)[C@H](C)COC3(C)[C@@H](OC(=O)CCCCCCC)C[C@H]1O (some centres not stated)", "active"],
  ["C[C@@]12CCC[C@@](C)(C(=O)OP(=O)(O)OC[C@H]3O[C@@H](n4cnc5c(N)ncnc54)[C@H](O)[C@@H]3O)[C@H]1C[C@@H](O)[C@@]13C[C@@H](CC[C@@H]21)[C@](C)(O)C3", "inactive"],
  ["CC(C)C[C@@H]1c2c(O)c(C=O)c(O)c(C=O)c2O[C@]2(C)C=C[C@@H](C(C)C)C[C@H]12", "inactive"]
]}
